system: LOC_OS05G28520-cb001; assay: thermal shift delta Tm vs DMSO control; higher = stronger stabilization (binding); conditions: 12.5 µM; protein concentration 2 µM;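 further: purified Escherichia coli-expressed rice kinase domain construct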
thermal shift delta Tm overview

Molecule: CSc1cccc(Nc2ncc3cc(-c4c(Cl)cccc4Cl)c(=O)n(C)c3n2)c1
Unit of measure: °C
thermal shift delta Tm: 0.64
//
Molecule: O=C(Nc1cc(C(F)(F)F)cc(C(F)(F)F)c1)c1cc(Cl)ccc1O
Unit of measure: °C
thermal shift delta Tm: 0.78
//
Molecule: CCn1nc(C2CCN(C(=O)CCO)CC2)nc1-c1cnc(N)c(-c2nnc(C(C)(C)C)o2)n1
Unit of measure: °C
thermal shift delta Tm: 0.66
//
Molecule: COc1cc(Nc2ncc(F)c(Nc3ccc4c(n3)NC(=O)C(C)(C)O4)n2)cc(OC)c1OC
Unit of measure: °C
thermal shift delta Tm: 0.56
//
Molecule: C=C[C@@](C)(/C=C/c1ccc(O)cc1)CCC=C(C)C [Bakuchiol]
Unit of measure: °C
thermal shift delta Tm: 0.19
//
Molecule: C=CC(=O)Nc1cccc(Oc2nc(Nc3ccc(N4CCN(C)CC4)cc3OC)ncc2Cl)c1
Unit of measure: °C
thermal shift delta Tm: 0.26
//
Molecule: COCCOc1ccc2c(c1)ncn2-c1ccc2cccc(N3CCC(N)CC3)c2n1
Unit of measure: °C
thermal shift delta Tm: -0.07
//
Molecule: CC[C@@](C)(Nc1ccnc(-c2c[nH]c3ncccc23)n1)C(=O)NCC(F)(F)F [Decernotinib (VX-509)]
Unit of measure: °C
thermal shift delta Tm: 0.87
//
Molecule: CC[C@@H]1C(=O)N(C)c2cnc(Nc3ccc(C(=O)N[C@H]4CC[C@H](N5CCN(CC6CC6)CC5)CC4)cc3OC)nc2N1C(C)C [Volasertib (BI 6727)]
Unit of measure: °C
thermal shift delta Tm: -0.32
//
Molecule: C=CC(=O)Nc1cccc(C)c1Nc1ncc2cc(-c3c(Cl)c(OC)cc(OC)c3Cl)ccc2n1
Unit of measure: °C
thermal shift delta Tm: 0.18
//
Molecule: Cc1c(C(=O)Nc2ccc(Oc3ccnc4[nH]cc(-c5ccccc5)c34)c(F)c2)c(=O)n(-c2ccc(F)cc2)n1C
Unit of measure: °C
thermal shift delta Tm: 0.13
//
Molecule: NC1(Cc2ccc(Cl)cc2)CCN(c2ncnc3[nH]ccc23)CC1
Unit of measure: °C
thermal shift delta Tm: 0.49

Data origin, for the record: the supplement of paper PMC9694430
